Biological target: T1, human HER1 (human, UniProt P00533 25-1210)
T1 construct: also called EGFR; ErbB1
Test: FACS CHO-HER1, 667 nM
One threshold, 60, splits the recorded MCF values: lower ones are class 1, equal or higher ones are class 0.

Past entries and their recorded results:
17B05 (VHH, also called HER3MS17B05; HER3MS017B05) VHH: EVQLVESGGGLVQPGGSLRLSCAASGSIGGLNAMAWYRQAPGKERELVAGIFGVGSTRYADSVKGRFTISRDIAKNTVFLQMNSLNSEDTAVYYCRMSSVTRGSSDYWGQGTQVTVSS; class 0
17E08 (VHH) VHH: EVQLVESGGGLVQPGGSLRLSCSASGSIFGLNAMGWYRQTPGKERELVAGITSITRVGSTRYADSAKGRFTISGDYAKNTVYLQMNSLKPEDTGVYYCRMSIVKSGGADYWGQGTQVTVSS; class 1
21F06 (VHH, c-myc, His6-tagged form as expressed; also called 21F6; HER3MS21F06) VHH: EVQLVESGGGLVQAGGSLRLSCAASGRTYYLNAMGWFRQGPGKDREFVAAIDWSDGNKDYADSVKGRFTISRDNAKNTVYLQMNSLKPEDTAVYYCAADTPPWGPMIYIESYDSWGQGTQVTVSS; class 0
18B05 (VHH) VHH: EVQLVESGGGLVQAGGSLRLSCAASGLTFGSAPMGWYRQAPGKERELVAYISGDERIWYGDSVKGRFTISRDTTKNTLYLQMNSLKPEDTAVYYCVSDVKVRHWGQGTQVTVSS; class 0
23F05 (VHH) VHH: EVQLVESGGGLVQAGGSLRLSCAASGFTFDGYAIGWFRQAPGKEREGVSCISGGDGRSYYADSVKGRFTVSSDNAKNTLYLEMNSLKPEDTAVYYCAVIWGPYCSDSYEYLYEYDYWGQGTQVTVSS; class 0
17C08 (VHH, also called 17C8) VHH: EVQLVESGGGLMQAGDSLRLSCAASGRAFSSYALGWFRRAPGKERECVAATDRLGDNTYFPDSVKGRFTISRDNAKNTLYLQMNNLKPEDTAVYYCAAGAVRYGVSTSPMNYNYWGQGTQVTVSS; class 1

Then this binder:
-- ask Does 18E08 (VHH) VHH: EVQLVESGGGLVQPGGSLRLSCAASGTLFKINAMGWYRQAPGKQRELVALITSSDTTDYAESVEGRFTISRDNTWNAVYLQMNSLKPEDTAVYYCHSDHYSMGVPEKRVIMYGQGTQVTVSS have MCF strictly under 60?
-- reply class 0
